The measured values listed here are drawn from ChEMBL document CHEMBL4808148.

# target.or.system: Protein deacetylase HDAC6 (Homo sapiens)
# details: at 10 µM
Hit rate of the full screen: of about 5,600 compounds, about 390 (7%) showed an effect of 50% or more. Many of the other results were omitted from the sample, so strong results are more common in it than they were.
# maps each entry to its inhibition

{"compound": "C[C@@H](NCc1cc(Br)cc2nc(O)c(O)nc12)P(=O)(O)O", "inhibition [%]": 7.12}
{"compound": "O=C(Nc1cccc(Nc2ncc(Br)c(NCCc3cnc[nH]3)n2)c1)N1CCCC1", "inhibition [%]": 41.2}
{"compound": "C[C@]12C=CC(=O)C=C1CC[C@@H]1[C@@H]2[C@@H](O)C[C@@]2(C)[C@H]1CC[C@]2(O)C(=O)CO", "inhibition [%]": 1.72}
{"compound": "COc1cc(N2CCC(N3CCN(C)CC3)CC2)ccc1Nc1ncc(Cl)c(Nc2ccccc2S(=O)(=O)C(C)C)n1", "inhibition [%]": 17.9}
{"compound": "CCCc1c(OCC(O)COc2ccc3c(=O)cc(C(=O)O)oc3c2CCC)ccc(C(C)=O)c1O (centres undefined)", "inhibition [%]": 22.7}
{"compound": "CCc1cncnc1N1CCN(Cc2nc3cc(C(F)(F)F)ccc3[nH]2)CC1", "inhibition [%]": 2.81}
{"compound": "CCOC(=O)C1=C(C)NC(c2ccccc2)=C(C(=O)OCc2ccc([N+](=O)[O-])cc2)C1C#Cc1ccccc1 (centres undefined)", "inhibition [%]": -2.41}
{"compound": "Cn1cnnc1Sc1c([N+](=O)[O-])ncn1C", "inhibition [%]": 19.5}
{"compound": "CN1CCc2c(c3ccccc3n2Cc2ccc(C(=O)NO)cc2)C1", "inhibition [%]": 101}
